system: ducksalad (Heteranthera limosa); assay: Test B flooded paddy test; assay type: in vivo; details: Flood, 250 g ai/ha; scale 0 to 100
Quantity: Plant response rating, Ducksalad

>>> print(df.to_string())
                                   compound                          quantity  reading
0  COCCn1c(-c2cccc(F)c2)c(Cl)nc(C(=O)C2=C(O)CCCC2=O)c1=O [Compound 7]  Plant response rating, Ducksalad       80
1  COCCn1c(-c2cccc(F)c2)c(Cl)nc(C(=O)C2=C(O)CCCC2=O)c1=O [Compound 4]  Plant response rating, Ducksalad       85
2  O=C1CCCC(O)=C1C(=O)c1nc(Cl)c(-c2cccc(F)c2)n(C2CCCCC2)c1=O  Plant response rating, Ducksalad       80
3  COCCCn1c(-c2cc(F)cc(F)c2)c(Cl)nc(C(=O)C2=C(O)CCCC2=O)c1=O  Plant response rating, Ducksalad       80
4  CCCCn1c(-c2ccccc2)cnc(C(=O)C2=C(O)CCCC2=O)c1=O  Plant response rating, Ducksalad       95
5  COCCn1c(-c2cc(F)cc(F)c2)c(Cl)nc(C(=O)C2=C(O)CCCC2=O)c1=O  Plant response rating, Ducksalad       80
6  O=C1CCCC(O)=C1C(=O)c1nc(Cl)c(-c2cccc(Cl)c2)n(C2CCCCC2)c1=O  Plant response rating, Ducksalad       80
7  COCCn1c(-c2cc(F)cc(F)c2)cnc(C(=O)C2=C(O)CCCC2=O)c1=O  Plant response rating, Ducksalad       90
